Experiment: in vitro
Conditions: human, hela cells, % viability
Measured viability at 28.5 h, 10 µM, listed per entry.
Express your answer in %, writing the number without its unit.

Worked cases, answers included:
Cc1ccc([N+](=O)[O-])cc1/C=C(/C#N)c1nc2ccccc2s1 : 95.4
CCc1nc2c(OCc3ccccc3)cccn2c1N(Cc1ccc(OC)cc1)C(C)=O : 89.8
Cc1n[nH]c(O)c1C(c1ccc(OC(=O)c2ccccc2)cc1)c1c(C)n[nH]c1O : 109

Incoming: Output viability at 28.5 h, 10 µM of COC(=O)c1cccc(COC(=O)c2ccc3nc(C)c(C)nc3c2)c1
Outgoing: 95.2

Incoming: Identify measured viability at 28.5 h, 10 µM corresponding to COc1cc(NC(=O)CC2SC(NC3CCCCC3)=NC2=O)c(OC)cc1Cl (centres unmarked)
Outgoing: 96.2

---

Assay: in vitro
Conditions: human, hela cells, % viability
quantityMeasured: viability at 28.5 h, 10 µM (%)
Lab book: enter the figure in %, no units written.

Incoming: Hello, please tell me recorded viability at 28.5 h, 10 µM for this one: COCCOCN1C(=O)CC2(C1=O)C(=O)N(CC(=O)O)c1ccc(F)cc12 (centres unmarked) [CBK076163]
Outgoing: 90.5

Incoming: Give the reported viability at 28.5 h, 10 µM for this compound. O=C(O)C1CC(=O)N(CCc2c[nH]c3ccc(Cl)cc23)C1 (centres unmarked) [CBK287211]
Outgoing: 91

---

Assay: in vitro
Settings: human, hela cells, % viability
In plain terms, low viability at 28.5 h, 10 µM, meaning strictly below 90%, gives 1 (yes), and everything else gives 0 (no).

Recorded results for 5 compounds are shown here.
COc1cc(CNC(=O)NC(=O)C2CCN(C(C)=O)CC2)cc(OC)c1OC [CBK034833] : 0 (no)
O=C(NCCNc1cnccn1)c1cccc(Cl)c1Cl [CBK305727] : 1 (yes)
CCN1C(=O)c2cccc3c(S(=O)(=O)Nc4cccc(C(=O)O)c4)ccc1c23 [CBK299838] : 0 (no)
O=C(NCC1CCCO1)c1sc2ccccc2c1Cl (stereo not drawn) [CBK058604] : 0 (no)
CC(NC(=O)C1(Cn2ccnc2)CC1)c1nncn1C(C)C (stereo not drawn) [CBK306682] : 0 (no)

Could you now look at the following compound, please?
Incoming: Say whether its viability at 28.5 h, 10 µM is strictly beneath 90%. Entry: CSCCCNC(=O)c1ccccc1Nc1cccc(C(F)(F)F)c1 [CBK149551]
Outgoing: 1 (yes)

---

Assay: in vitro
Conditions: human, hela cells, % viability
quantityMeasured: viability at 28.5 h, 10 µM (%)
Give the value in % but do not write % after it.

Incoming: Specify viability at 28.5 h, 10 µM for COc1cccc(OCC(O)CN(C)S(=O)(=O)O)c1 (stereo not shown) [CBK027121N] and stop.
Outgoing: 89.9

Incoming: Could you please provide reported viability at 28.5 h, 10 µM for COc1ncc(C(=O)NCc2cccnc2N(C)C2CCCCC2)cn1 [CBK306870] ? Thanks!
Outgoing: 91.8

Incoming: Query viability at 28.5 h, 10 µM for Nc1ncc(-c2cccc(F)c2)nc1-c1ccc(C(=O)N2CCOCC2)cc1 [CBK064131]
Outgoing: 88.4

Incoming: Please indicate viability at 28.5 h, 10 µM recorded for OCCN1CCN(C(S)=NC2CCCC2)CC1 [CBK265886]
Outgoing: 91.6

---

Assay: in vitro
Settings: human, hela cells, % viability
quantityMeasured: viability at 28.5 h, 10 µM (%)
Please respond with the number in % and leave the unit unwritten.

Solved cases (3 shown):
Cc1ccc(CN2CC(C(=O)N3CCC(C(=O)O)CC3)CC2=O)cc1 (centres unmarked) [CBK300205] : 91.8
CCCOc1ccc(C(=O)N2CCN(c3ccccc3)CC2)cc1 [CBK304327] : 90.7
Nc1cc(S(=O)(=O)Nc2ccc(C(F)(F)F)cc2)ccc1N1CCCNCC1 [CBK001518C] : 87.9

Incoming: Please supply the value of reported viability at 28.5 h, 10 µM for the item COc1ccccc1N1CCN(c2c(C)c(C)nc3cc(-c4nccn4C)nn23)CC1 [CBK286182]
Outgoing: 87.5

Incoming: Tell me measured viability at 28.5 h, 10 µM for COc1cc(Br)cc(C2NC(=O)c3cnc(SC)nc3N2)c1O (centres unmarked) [CBK291179] please.
Outgoing: 91.9

---

Listed below: viability at 28.5 h, 10 µM values for each entry.
Test: in vitro
Details: human, hela cells, % viability
Write the number in % without appending the unit.

COc1ccc(CCNC(=O)N2CCN(c3cc(C(F)(F)F)ccn3)CC2)cc1OC : 105

Incoming: Supply measured viability at 28.5 h, 10 µM of CCS(=O)(=O)NC1CC(C)(C)Cc2c1cnn2-c1ccc(OC)cc1 (centres unmarked) in your reply.
Outgoing: 116

Incoming: Input COc1ccc(NC(=O)c2c(NC(=O)CN3CCCC(C)C3)sc3c2CCC3)cc1 (centres unmarked) , output reported viability at 28.5 h, 10 µM.
Outgoing: 93.3

Incoming: Identify measured viability at 28.5 h, 10 µM associated with CC(=O)NCC1CC(c2ccc(OC(C)=O)c(Cl)n2)=NO1 (centres unmarked)
Outgoing: 88.8

Incoming: Entry NNC(=O)Cn1c(-c2ccccn2)nc2ccccc21 needs its viability at 28.5 h, 10 µM filled in; supply it.
Outgoing: 108

Incoming: Could you please provide reported viability at 28.5 h, 10 µM for Cc1nn(Cc2ccc(Cl)cc2)c(C)c1C(N)C(=O)O (centres unmarked) ? Thanks!
Outgoing: 89.7

---

Listed below: viability at 28.5 h, 10 µM values for each entry.
Test: in vitro
Settings: human, hela cells, % viability
Supply the numeric figure in %, leaving out any unit text.

Observe how each entry below is paired with its result.
CC(=O)Nc1cccc(-n2nnnc2SCCCCCF)c1 [CBK306164] : 110
O=C1COc2ccccc2C/C=C/C[C@H]2CN(C(=O)Cn3ncc4ccccc4c3=O)CC[C@H]2N1 [CBK292084] : 85.6
COc1ccc(C)c(NC(=O)NCCc2c[nH]cn2)c1 [CBK269992] : 88.8
COc1ccc(CN2CCC(c3ncc(C(=O)Nc4ccc(F)cc4)c(C)n3)CC2)cc1 [CBK285629] : 101
Cn1c2ccccc2c2cc(C(O)(CC(=O)CC(O)(c3ccc4c(c3)c3ccccc3n4C)C(F)(F)F)C(F)(F)F)ccc21 (stereo not shown) [CBK262254] : 88
O=C(O)CCn1c(C2CCCCC2)nc2ccccc21 [CBK111480] : 86.2
CN1CCC(N(C)C(=O)Nc2ccc(C(N)=O)cc2)C1 (stereo not shown) [CBK156015] : 93.8
O=C(O)CCC(=O)N1CCN(c2ccc(C(=O)c3ccc(F)cc3)cc2)CC1 [CBK269119] : 112

Incoming: Item COC(=O)c1ccc(Oc2nc(OC)cc(OC)n2)cc1 [CBK092221] : provide viability at 28.5 h, 10 µM
Outgoing: 113

Incoming: Kindly indicate its recorded viability at 28.5 h, 10 µM. Item: C[C@H](Nc1nc(-c2cccc(/C=C/C(=O)O)c2)cnc1N)c1ccccc1 [CBK063754]
Outgoing: 85.2

Incoming: Note viability at 28.5 h, 10 µM for the molecule shown: COCCN1C(=O)C2(CC(=O)N(CC(=O)C(C)(C)C)C2=O)c2ccccc21 (stereo not shown) [CBK075324]
Outgoing: 118

Incoming: Tell me its viability at 28.5 h, 10 µM given Cn1cc(CCNC(=O)Nc2ccc(CN3CCCC3=O)cc2)cn1 [CBK305410] as the entry.
Outgoing: 107

Incoming: Indicate the recorded viability at 28.5 h, 10 µM value for this molecule: O=C(CC1CCS(=O)(=O)C1)NC1(c2ccc(Cl)cc2)CC1 (stereo not shown) [CBK282773]
Outgoing: 97.6

---

Tested on: HeLa
Conditions: bulk resorufin, single well, 28.5 h, 10 µM, Bulk resorufin fluorescence
Just a reminder that ties go to Not met: only % viability strictly below 90% counts as Met.

Incoming: Answer whether the compound CC[C@H](Cn1ncc2ccccc2c1=O)NC(=O)c1ccco1 has % viability strictly less than 90%
Outgoing: Met

Incoming: Lab note: confirm whether the reported % viability for this compound is below 90%, equality not counting. compound: Clc1ccc(COc2cncc(OC3CCN(CCN4CCOCC4)C3)n2)cc1Cl (centres unmarked)
Outgoing: Not met

Incoming: Field: below-cutoff. Rule: recorded % viability strictly less than 90%. Subject: CN(C)S(=O)(=O)c1cc(C(=O)O)c(Cl)cc1Cl
Outgoing: Not met

Incoming: Criterion: % viability strictly below 90%. Is it met by COc1cccc(CN2C(=O)[C@H]3CCCN3C(=O)c3ccccc32)c1 ?
Outgoing: Not met

Incoming: API: query returns whether the compound falls strictly under 90% in % viability. Query: OC1CCn2c1nc1cc(C(F)(F)F)ccc12 (centres unmarked)
Outgoing: Met

Incoming: Quick check: % viability of O=C(O)CCS(=O)(=O)c1nc(-c2ccccc2)cc(C(F)(F)F)n1 under 90%?
Outgoing: Not met

Incoming: Please check: % viability for CCCc1[nH]nc(O)c1CCc1ccc(Cl)cc1Cl , strictly under 90% or not?
Outgoing: Not met

Incoming: Confirm or reject: % viability of Clc1ccc(COc2nccnc2OC2CCN(CC3CC3)CC2)cc1Cl lies strictly below 90%
Outgoing: Not met

src = paper PMC12040169
